- targetOfAssay: 5-HT1B receptor (Homo sapiens)
- Sequence (P28222 whole entry): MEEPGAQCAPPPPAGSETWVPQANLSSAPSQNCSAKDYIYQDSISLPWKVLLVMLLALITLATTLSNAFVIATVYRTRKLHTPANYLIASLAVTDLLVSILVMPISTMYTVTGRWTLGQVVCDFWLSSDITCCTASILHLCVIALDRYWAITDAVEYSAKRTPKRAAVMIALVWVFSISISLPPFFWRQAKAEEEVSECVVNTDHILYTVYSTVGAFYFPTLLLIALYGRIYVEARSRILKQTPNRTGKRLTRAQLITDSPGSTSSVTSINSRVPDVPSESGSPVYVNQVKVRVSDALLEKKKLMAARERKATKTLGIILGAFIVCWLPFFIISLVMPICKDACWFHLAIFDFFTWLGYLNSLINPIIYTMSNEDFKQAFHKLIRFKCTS
- protocol: cAMP accumulation agonist assay at 5-HT1B
- Format: cell-based

>  <structureSmiles>
CCN(CC)C(=O)[C@@H]1C=C2c3cccc4[nH]c(Br)c(c34)C[C@H]2N(C)C1

>  <EC50 / nM>
214

$$$$

###

Listed below: t1/2 values for each entry.
- protocol: Metabolic stability in mouse liver microsomes (MLM)
- Assay type: in vitro ADME
- measurementContext: MLM (CD-1), 1 μM, 0.50 mg protein per mL

>  <molecule>
CCN(CC)C(=O)[C@@H]1C=C2c3cccc4[nH]cc(c34)C[C@H]2N(C)C1 [LSD, lysergic acid diethylamide, reference compound]

>  <unitText>
min

>  <t1/2>
31.3

$$$$
>  <molecule>
CCC[C@@H](C)NC(=O)[C@@H]1C=C2c3cccc4[nH]cc(c34)C[C@H]2N(CCC)C1

>  <unitText>
min

>  <t1/2>
0.541

$$$$
>  <molecule>
CCN(CC)C(=O)[C@@H]1C=C2c3cccc4[nH]cc(c34)C[C@H]2N(Cc2cccc(OC)c2)C1

>  <unitText>
min

>  <t1/2>
2.6

$$$$
